Experiment: in vivo
Conditions: mouse, Table 7, oral, male dd-strain mice
readout.label: LD50

INSERT INTO results (compound, result) VALUES
  ('CCCC(=O)Nc1ccc(OCC(O)CNCCN(Cc2ccccc2)C(C)COc2ccccc2)c(C(C)=O)c1 (stereo not drawn)', '1000 to 2000 mg/kg'),
  ('CCOC(=O)Cc1ccc(OCC(O)CNCCN(Cc2ccccc2)C(C)COc2ccccc2)cc1 (stereo not drawn)', '> 1000 mg/kg'),
  ('CC(=O)Nc1ccc(OCC(O)CNCCN(Cc2ccccc2)C(C)COc2ccccc2)cc1 (stereo not drawn)', '> 1000 mg/kg');

---

Assay: in vivo
Settings: mouse, Table 6, oral, male dd-strain mice
Reported LD50 values for the following compounds.
readout.label: LD50

INSERT INTO assay_data (compound, result) VALUES
  ('Cc1cccc(OCC(O)CNC(C)CCc2ccccc2)c1C (centres unmarked)', '500 to 1000 mg/kg'),
  ('COc1ccc(OCC(C)NCC(O)COc2ccccc2C#N)cc1 (centres unmarked)', '125 to 250 mg/kg'),
  ('CC(CCc1ccccc1)NCC(O)c1ccc(CC(N)=O)cc1 (centres unmarked)', '> 1000 mg/kg'),
  ('CCOC(=O)Cc1cccc(OCC(O)CNC(C)CCc2ccccc2)c1 (centres unmarked)', '> 1000 mg/kg'),
  ('COc1ccc(OCC(C)NCC(O)COc2ccc(NC(C)=O)cc2)cc1 (centres unmarked)', '> 1000 mg/kg'),
  ('CC(CCc1ccccc1)NCC(O)COc1cccc(CC(N)=O)c1 (centres unmarked)', '> 1000 mg/kg'),
  ('COC(=O)c1ccccc1OCC(O)CNC(C)CCc1ccccc1 (centres unmarked)', '500 to 1000 mg/kg'),
  ('COc1ccc(OCC(C)NCC(O)COc2ccc(CC(N)=O)cc2)cc1 (centres unmarked)', '> 1000 mg/kg'),
  ('CCOC(=O)Cc1ccc(OCC(O)CNC(C)CCc2ccccc2)cc1 (centres unmarked)', '> 1000 mg/kg'),
  ('CC(CCc1ccccc1)NCC(O)COc1ccccc1C#N (centres unmarked)', '125 to 250 mg/kg'),
  ('CCOC(=O)Cc1ccc(C(O)CNC(C)CCc2ccccc2)cc1 (centres unmarked)', '> 1000 mg/kg');
